study.target: SMARCA2-HiBiT HeLa cells (protein which is expressed from the SMARCA2 gene) (Homo sapiens, UniProt P51531)
Construct: protein which is expressed from the SMARCA2 and SMARCA4 genes; host or cells: HeLa (SMARCA2-HiBiT engineered line)
Sequence (P51531 whole entry): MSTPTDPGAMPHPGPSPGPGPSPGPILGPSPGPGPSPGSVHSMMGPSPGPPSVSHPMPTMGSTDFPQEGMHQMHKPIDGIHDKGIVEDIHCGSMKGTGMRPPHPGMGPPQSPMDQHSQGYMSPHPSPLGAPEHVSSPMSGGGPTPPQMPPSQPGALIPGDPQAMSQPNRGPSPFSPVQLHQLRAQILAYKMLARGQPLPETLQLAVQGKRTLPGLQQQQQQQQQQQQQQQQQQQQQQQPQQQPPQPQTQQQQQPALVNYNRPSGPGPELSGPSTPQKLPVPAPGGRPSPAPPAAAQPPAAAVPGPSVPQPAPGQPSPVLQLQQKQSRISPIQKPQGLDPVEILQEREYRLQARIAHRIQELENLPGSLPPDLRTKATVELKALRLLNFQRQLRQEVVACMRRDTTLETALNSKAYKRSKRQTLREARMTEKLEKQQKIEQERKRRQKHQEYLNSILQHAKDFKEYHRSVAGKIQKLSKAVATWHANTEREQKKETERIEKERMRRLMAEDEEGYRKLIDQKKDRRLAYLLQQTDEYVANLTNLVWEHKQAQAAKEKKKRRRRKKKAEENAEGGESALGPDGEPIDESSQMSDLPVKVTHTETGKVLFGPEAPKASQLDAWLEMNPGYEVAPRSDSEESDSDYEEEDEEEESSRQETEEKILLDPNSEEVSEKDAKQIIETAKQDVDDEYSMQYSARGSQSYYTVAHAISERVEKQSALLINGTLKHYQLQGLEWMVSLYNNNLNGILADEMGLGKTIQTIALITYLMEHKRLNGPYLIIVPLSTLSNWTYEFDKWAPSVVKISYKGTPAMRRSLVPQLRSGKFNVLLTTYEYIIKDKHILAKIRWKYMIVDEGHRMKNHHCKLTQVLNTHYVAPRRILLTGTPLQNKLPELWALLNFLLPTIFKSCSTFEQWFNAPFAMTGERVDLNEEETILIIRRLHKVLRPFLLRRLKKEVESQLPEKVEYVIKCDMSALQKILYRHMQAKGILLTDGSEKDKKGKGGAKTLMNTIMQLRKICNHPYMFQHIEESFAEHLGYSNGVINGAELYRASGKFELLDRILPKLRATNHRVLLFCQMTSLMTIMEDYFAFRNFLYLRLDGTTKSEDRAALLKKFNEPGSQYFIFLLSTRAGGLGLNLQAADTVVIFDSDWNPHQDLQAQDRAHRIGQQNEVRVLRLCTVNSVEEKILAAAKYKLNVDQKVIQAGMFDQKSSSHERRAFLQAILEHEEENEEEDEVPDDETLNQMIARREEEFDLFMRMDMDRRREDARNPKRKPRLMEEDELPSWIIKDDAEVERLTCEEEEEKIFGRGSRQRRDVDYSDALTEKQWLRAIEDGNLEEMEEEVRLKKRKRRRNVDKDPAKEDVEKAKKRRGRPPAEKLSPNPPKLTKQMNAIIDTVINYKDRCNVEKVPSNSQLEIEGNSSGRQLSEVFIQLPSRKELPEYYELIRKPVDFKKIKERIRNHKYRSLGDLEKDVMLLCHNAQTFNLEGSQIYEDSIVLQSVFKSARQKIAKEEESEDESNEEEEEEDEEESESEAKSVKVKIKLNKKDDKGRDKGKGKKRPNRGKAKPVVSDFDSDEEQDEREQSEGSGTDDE
assay: SMARCA2 degradation assay (HiBiT-fusion HeLa cell line, 24 h, luminescence)
Assay type: cell-based
measured.property: DC50

Worked examples, 2 compounds total:
compound | observed
Nc1nnc(-c2ccccc2O)cc1N1CCCN(c2ccnc(/C=C/CNC(=O)c3cc4ncccn4n3)n2)CC1 [Compound P-112] | 50 to 500 nM
Nc1nnc(-c2ccccc2O)cc1N1C2CCC1CN(c1ccnc(C#CCCNC(=O)c3cc4ncccn4n3)n1)C2 [Compound P-22] | 500 to 5000 nM

Looking up Cc1c(C(=O)NCC#Cc2nccc(N3CCN(c4cc(-c5ccccc5O)nnc4N)CC3)n2)nn(C)c1C [Compound P-8] , I see its DC50 listed as 50 to 500 nM

# compound C[C@H]1CCN(c2cc(-c3ccccc3O)nnc2N)CCN1c1ccc(C#N)c(C#CCN2CC[C@H](F)C2)n1 [Compound P-411] ; its DC50 = 50 to 500 nM

// recorded DC50 for CC(C)NC(=O)NCC#Cc1nccc(N2CCCN(c3cc(-c4ccccc4O)nnc3N)CC2)n1 [Compound P-327] : 500 to 5000 nM

Notebook: Cn1nccc1OCC#Cc1nccc(N2CCCN(c3cc(-c4ccccc4O)nnc3N)CC2)n1 [Compound P-131] , DC50 read as 50 to 500 nM

Note to self: DC50 recorded for COCC#Cc1nc(N2CCN(c3cc(-c4ccccc4O)nnc3N)CC[C@H]2C)ccc1C#N [Compound P-400] was 500 to 5000 nM

DC50 for C[C@@H]1CCN(c2cc(-c3ccccc3O)nnc2N)CCN1c1ccnc(C#C[C@@H](C)O)n1 [Compound P-198] is 50 to 500 nM

Field DC50 (entry CC1(F)CCN(CC#Cc2nccc(N3CCC4(CC3)CCN(c3cc(-c5ccccc5O)nnc3N)C4)n2)C1 (stereo not drawn) [Compound P-195] ) reads 50 to 500 nM

Recorded DC50 (compound Nc1nnc(-c2ccccc2O)cc1N1CC2CC(C1)N2c1ccnc(C#CCN2CC(F)(F)C2)n1 [Compound P-204] ): 50 to 500 nM

// DC50 lookup, compound = Nc1nnc(-c2ccccc2O)cc1N1CCCN(c2ccnc(C#CCN3CCCOCC3)n2)CC1 [Compound P-379] , result: 50 to 500 nM

Measured DC50, COCC1COCCN1CC#Cc1nccc(N2CCN(c3cc(-c4ccccc4O)nnc3N)CC[C@H]2C)n1 (stereo partly drawn) [Compound P-162] : 50 to 500 nM

DC50 for CS(=O)(=O)N1CCC(C#Cc2nccc(N3CCCN(c4cc(-c5ccccc5O)nnc4N)CC3)n2)CC1 [Compound P-352] is 500 to 5000 nM

###

Each record here notes measured DC50.
study.target: SMARCA2-HiBiT HeLa cells (protein which is expressed from the SMARCA2 gene) (Homo sapiens)
Construct: protein which is expressed from the SMARCA2 and SMARCA4 genes; host or cells: HeLa (SMARCA2-HiBiT engineered line)
assay: SMARCA2 degradation assay (HiBiT-fusion HeLa cell line, 24 h, luminescence)
Type: cell-based

compound | measured.property | observed
Nc1nnc(-c2ccccc2O)cc1N1CCCN(c2ccnc(C#CCNc3cc4ncccn4n3)n2)CC1 [Compound P-120] | DC50 | 500 to 5000 nM

response.value for C[C@H]1CCN(c2cc(-c3ccccc3O)nnc2N)CCN1c1ccnc(C#CCN(C)C)n1 [Compound P-250] (field: DC50) = < 50 nM

The recorded DC50 for entry CN(C)CC#Cc1ncc(F)c(N2C3CCC2CN(c2cc(-c4ccccc4O)nnc2N)C3)n1 [Compound P-225] equals < 50 nM

// field: DC50; key: Nc1nnc(-c2ccccc2O)cc1N1CCCN(c2ccnc(C#CCN3CC4CCC(C3)O4)n2)CC1 [Compound P-315] ; value = 50 to 500 nM

###

study.target: SMARCA2-HiBiT HeLa cells (protein which is expressed from the SMARCA2 gene) (Homo sapiens, UniProt P51531)
Construct: protein which is expressed from the SMARCA2 and SMARCA4 genes; host or cells: HeLa (SMARCA2-HiBiT engineered line)
assay: SMARCA2 degradation assay (HiBiT-fusion HeLa cell line, 24 h, luminescence)
Format: cell-based
# DC50 values compiled below

compound | DC50
C[C@H]1CN(c2ccnc(C#CCN3CCCCC3)n2)CCN1c1cc(-c2ccccc2O)nnc1N [Compound P-319] | < 50 nM

Per the record, Nc1nnc(-c2ccccc2O)cc1N1CCN(c2ccnc(C#CCNC(=O)c3cccnn3)n2)CC1 [Compound P-5] has DC50 of 50 to 500 nM

The reported DC50 of the compound Nc1nnc(-c2ccccc2O)cc1N1CCC2C1CCN2c1ccnc(C#CCNC(=O)c2cc3ncccn3n2)n1 (stereo not shown) [Compound P-77] was 500 to 5000 nM

###

study.target: SMARCA2-HiBiT HeLa cells (protein which is expressed from the SMARCA2 gene) (Homo sapiens, UniProt P51531)
Construct: protein which is expressed from the SMARCA2 and SMARCA4 genes; host or cells: HeLa (SMARCA2-HiBiT engineered line)
assay: SMARCA2 degradation assay (HiBiT-fusion HeLa cell line, 24 h, luminescence)
Type: cell-based
condition.set: @ 1 μM
measured.property: SMARCA2 % Degradation @ 1 μM

compound | observed
C/C=C/c1nccc(N2CCN(c3cc(-c4ccccc4O)nnc3N)CC[C@H]2C)n1 [Compound P-169] | +++ (+++=>70%)
Nc1nnc(-c2ccccc2O)cc1N1CC2CCC(C1)N2c1ccnc(C#CC2(NC(=O)c3cc4ncccn4n3)CC2)n1 [Compound P-98] | ++ (++=30-70%)
CC1(NCC#Cc2nccc(N3CCCN(c4cc(-c5ccccc5O)nnc4N)CC3)n2)COC1 [Compound P-278] | ++ (++=30-70%)
Nc1nnc(-c2ccccc2O)cc1N1CCCN(c2ccnc(C#CCN3CCC(Cc4ccccc4)CC3)n2)CC1 [Compound P-337] | +++ (+++=>70%)
Nc1nnc(-c2ccccc2O)cc1N1CCN(c2ccnc(C#CCNC(=O)c3cc4n(n3)CCCC4)n2)CC1 [Compound P-69] | ++ (++=30-70%)
C[C@H]1COCCN1CC#Cc1nccc(N2CCCN(c3cc(-c4ccccc4O)nnc3N)CC2)n1 [Compound P-316] | ++ (++=30-70%)

Lab note: measured SMARCA2 % Degradation @ 1 μM of Nc1nnc(-c2ccccc2O)cc1N1CCCN(c2ccnc(C#CCNC(=O)NC3CC3)n2)CC1 [Compound P-324] was ++ (++=30-70%)

###

study.target: SMARCA2-HiBiT HeLa cells (protein which is expressed from the SMARCA2 gene) (Homo sapiens, UniProt P51531)
Construct: protein which is expressed from the SMARCA2 and SMARCA4 genes; host or cells: HeLa (SMARCA2-HiBiT engineered line)
assay: SMARCA2 degradation assay (HiBiT-fusion HeLa cell line, 24 h, luminescence)
Assay type: cell-based
Excerpt: SMARCA2 and SMARCA4 Degradation Assay Degradation of protein which is expressed from the SMARCA2 and SMARCA4 genes was monitored using engineered HiBiT-fusion HeLa cell lines from Promega. […] 24-hours post-treatment, protein levels were quantified with the addition of HiBiT lytic buffer, LgBiT protein, and HiBiT substrate, according to manufacturer's specifications. […]
measured.property: DC50

Reference set, count: 8
compound | measured.property | observed
CN(C)CC#Cc1nccc(N2C3CCC2CN(c2cc(-c4ccccc4O)nnc2N)C3)n1 | DC50 | 50 to 500 nM
CC1CCN(c2cc(-c3ccccc3O)nnc2N)CCN1c1ccnc(C#CCNC(=O)c2cc3ncccn3n2)n1 (centres unmarked) | DC50 | 50 to 500 nM
Nc1nnc(-c2ccccc2O)cc1N1C2CC1CN(c1ccnc(C#CCNC(=O)c3cc4ncccn4n3)n1)C2 | DC50 | 500 to 5000 nM
CC[C@H](C)NCC#Cc1nccc(N2CCCN(c3cc(-c4ccccc4O)nnc3N)CC2)n1 | DC50 | 50 to 500 nM
CCN(CC)CC#Cc1nccc(N2CCN(c3cc(-c4ccccc4O)nnc3N)CC[C@H]2C)n1 | DC50 | < 50 nM
CNCC#Cc1nccc(N2CCN(c3cc(-c4ccccc4O)nnc3N)CC2)n1 | DC50 | < 50 nM
NC/C=C/c1nccc(N2CCCN(c3cc(-c4ccccc4O)nnc3N)CC2)n1 | DC50 | 50 to 500 nM
CC1CN(c2ccnc(C#CCNC(=O)c3cc4ncccn4n3)n2)CCCN1c1cc(-c2ccccc2O)nnc1N (centres unmarked) | DC50 | 50 to 500 nM

// sample Nc1nnc(-c2ccccc2O)cc1N1CCC2(CCN(c3ccnc(C#CCNC(=O)c4cc5ncccn5n4)n3)C2)CC1 , its DC50 was 50 to 500 nM

Field DC50 (entry Nc1nnc(-c2ccccc2O)cc1N1CCN(c2ccnc(C#CCNC(=O)c3cc4n(n3)CCC4)n2)CC1 ) reads 50 to 500 nM

For Cc1nn2ccn(CC#Cc3nccc(N4CCCN(c5cc(-c6ccccc6O)nnc5N)CC4)n3)c(=O)c2c1C the compound record lists DC50 as 50 to 500 nM
